- tested.target: Neu5Ac(a2-3)Gal(b1-3)GalNAc(b1-3)Gal(a1-4)Gal(b1-4)Glc
- method.notes: glycan array binding signal (z-score within array); higher = stronger binding
- condition.notes: glycan notation: IUPAC condensed, linker removed
Shown is part of a subset that was picked to be rich in the strongest signals.
test.readout: glycan array binding signal (z-score)
Please reply with the number alone, leaving off any unit.

CML1 (Coprinopsis cinerea) (protein) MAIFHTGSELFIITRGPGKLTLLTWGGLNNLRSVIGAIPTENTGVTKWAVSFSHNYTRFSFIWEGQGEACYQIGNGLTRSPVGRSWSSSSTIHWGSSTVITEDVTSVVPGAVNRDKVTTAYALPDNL
-0.333

# input for lookup
// glycan array binding signal (z-score) lookup, binder = Surfactant Protein D (rat); Neck + Carbohydrate Recognition Domain (NCRD) (Rattus norvegicus) (protein) MLLFLLSALVLLTQPLGYLEAEMKTYSHRTMPSACTLVMCSSVESGLPGRDGRDGREGPRGEKGDPGLPGAAGQAGMPGQAGPVGPKGDNGSVGEPGPKGDTGPSGPPGPPGVPGPAGREGALGKQGNIGPQGKPGPKGEAGPKGEVGAPGMQGSAGARGAGPKGERGVPGERGVPGNTGAAGSAGAMGPQGSPGARGPPGLKGDKGIPGDKGAKGESGLPDVASLRQQVEALQGQVQHLQAAFSQYKKVELFPNGQSVGEKIFKTAGFVKPFTEAQLLCTQAGGQLASPRSAAENAALQQLVVAKNEAAFLSMTDSKTEGKFTYPTGESLVYSNWAPGEPNDDGGSEDCVEIFTNGKWNDRACGEKRLVVCEF , result: -0.176
